# tested-on: HPPARδ (Homo sapiens, UniProt Q03181)
# Construct: expressed in transfected cells; host or cells: CV-1 cells
# Sequence (Q03181 211-439 limits assumed): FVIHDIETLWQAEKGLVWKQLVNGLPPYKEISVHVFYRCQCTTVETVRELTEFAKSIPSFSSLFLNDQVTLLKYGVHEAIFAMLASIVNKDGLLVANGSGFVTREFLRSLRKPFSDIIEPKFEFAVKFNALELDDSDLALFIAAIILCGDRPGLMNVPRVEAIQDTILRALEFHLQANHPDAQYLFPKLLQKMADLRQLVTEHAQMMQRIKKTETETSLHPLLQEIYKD
# test-description: Transient transfection (transactivation) assay, hPPAR delta-GAL4 chimera in CV-1 cells
# Assay type: cell-based
# condition-summary: SPAP reporter
measure-name: EC50 (µM)
I only need the number, in µM, no unit after it.

Request: State its EC50 for this compound: `Cc1nc(C(=O)NCc2ccc(OC(C)(C)C(=O)O)cc2)sc1-c1ccc(C(C)C)cc1`
Result: 6.1

----------
# tested-on: HPPARα (Homo sapiens)
# Construct: expressed in transfected cells; host or cells: CV-1 cells
# Sequence (Q07869 239-466 limits assumed): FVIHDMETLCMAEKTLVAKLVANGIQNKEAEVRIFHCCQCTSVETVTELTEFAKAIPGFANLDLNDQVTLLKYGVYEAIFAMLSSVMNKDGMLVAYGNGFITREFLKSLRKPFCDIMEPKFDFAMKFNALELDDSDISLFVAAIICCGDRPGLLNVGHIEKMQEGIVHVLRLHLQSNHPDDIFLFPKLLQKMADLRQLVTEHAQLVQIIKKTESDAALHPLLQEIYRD
# test-description: Transient transfection (transactivation) assay, hPPAR alpha-GAL4 chimera in CV-1 cells
# Type: cell-based
# condition-summary: SPAP reporter
measure-name: EC50 (µM)
The figure you give is taken to be in µM; do not add the unit.

Request: Give recorded EC50. Cc1nc(C(=O)NCc2ccc(OC(C)(C)C(=O)O)cc2)sc1-c1ccc(C(C)C)cc1 [Example 1]
Result: 0.008
